assay: Lipophilicity, log P of the compound; format: physicochemical; details: octanol/water
recorded.endpoint: logP

Here's what some known entries look like.
* COc1ccc(C(=O)c2c3n(c(=N)c4c(F)c(C#N)c(F)c(F)c24)CCCN3)cc1 | 2.7
* COc1ccc(C(=O)c2c3n(c(=N)c4c(F)c(C#N)c(F)c(F)c24)CCO3)cc1 | 2.57

Next compound, logP to be filled in.
What value of logP has been reported for the following compound? N#Cc1c(Cl)c(Cl)c2c(C(=O)c3ccccc3)c3n(c(=N)c2c1Cl)CCN3
4.03
